Each recorded value in this set is attributed to ChEMBL document CHEMBL4665641.

Catalogue of clearance values
# Experiment: Plasma clearance in CD-1 mouse at 2 mg/kg, iv
# Assay type: ADME, organism-based
// note: answer is a bare numeric in mL/min/kg

Examples with their reported clearance follow.
Mol	clearance / mL/min/kg
CC(=O)N1CCN(c2nc(-c3cnn(CC(C)(C)O)c3)nc3ccc(-c4c(C)noc4C)cc23)[C@@H](c2ccccc2)C1	7.3
Cc1noc(C)c1-c1ccc2nc(-c3cnn(CC(C)(C)O)c3)nc(N3CCOC[C@@H]3c3ccc(F)cc3)c2c1	5.9

Now examine the next entry.
Input: Tell me clearance reported for Cc1noc(C)c1-c1ccc2nc(-c3cnn(CC(C)(C)O)c3)nc(N3CCN(S(C)(=O)=O)C[C@@H]3c3ccccc3)c2c1
Output: 6.9

---

# Tested target: Bromodomain-containing protein 4 (Homo sapiens)
# Experiment: Competitive binding affinity to human partial length BRD4 (BD1,2) (N44 to E460 residues) expressed in bacterial expression system by BROMOscan assay
Kd values, listed per item
Answer with a number only, understood to be in µM.

Completed entries (count: 3):
Mol	Kd, µM
Cc1noc(C)c1-c1ccc2nc(-c3cnn(CC(N)=O)c3)nc(N3CCOC[C@@H]3c3ccccc3)c2c1	0.12
Cc1noc(C)c1-c1ccc2nc(-c3cnn(CC(=O)N(C)C)c3)nc(N3CCOC[C@@H]3c3ccccc3)c2c1	0.11
Cc1noc(C)c1-c1ccc2nc(-c3cnn(CC(C)(C)O)c3)nc(N3CCOC[C@@H]3C3CCCC3)c2c1	0.155

# context switch: different compound, same Kd
Input: Return the recorded Kd value; entry: CC(=O)N1CCN(c2nc(N3CCOC[C@@H]3c3ccccc3)c3cc(-c4c(C)noc4C)ccc3n2)CC1
Output: 0.042

---

# Experiment: Half life in CD-1 mouse at 2 mg/kg, iv
# Assay type: ADME, organism-based
# Measurement setup: in vivo
Friendly reminder: half-life below 100 min is satisfied, at or above is not satisfied.

Answered examples (5):
Mol	Group label
Cc1noc(C)c1-c1ccc2nc(-c3cnn(CC(C)(C)O)c3)nc(N3CCOC[C@@H]3c3ccc(F)cc3)c2c1	not satisfied
Cc1noc(C)c1-c1ccc2nc(-c3cnn(CC(C)(C)O)c3)nc(N3CCOC[C@@H]3c3ccc(Cl)cc3)c2c1	not satisfied
Cc1cc(-c2ccc3nc(-c4cnn(CC(C)(C)O)c4)nc(N4CCOC[C@@H]4c4ccccc4)c3c2)cn(C)c1=O	not satisfied
Cc1noc(C)c1-c1ccc2nc(-c3cnn(CC(C)(C)O)c3)nc(N3CCOC[C@@H]3C3CC3)c2c1	satisfied
Cn1cc(-c2ccc3nc(-c4cnn(CC(C)(C)O)c4)nc(N4CCOC[C@@H]4c4ccccc4)c3c2)ccc1=O	not satisfied

Input: Decide: half-life of Cc1cc(-c2ccc3nc(-c4cnn(CC(C)(C)O)c4)nc(N4CCOC[C@@H]4c4ccc(F)cc4)c3c2)cn(C)c1=O strictly below 100 min?
Output: not satisfied
